# test.protocol: Intrinsic clearance in human liver microsomes
# Type: ADME, Microsome
measured.attribute: microsomal CLint (µL/min/mg)
Field format: number, assumed µL/min/mg, no unit text.

Input line: So what's the measured microsomal CLint for this one? c1ccc([C@@H]2Cc3nccn3C2)c(-c2ccncc2)c1
Output line: 17

Input line: Endpoint output: microsomal CLint of c1ccc([C@@H]2Cc3nccn3C2)c(-c2nccs2)c1 . Value?
Output line: 18

Input line: Which microsomal CLint is reported for this molecule? Fc1ccc(C2Cc3nccn3C2)c(-c2ncco2)c1 (stereo not drawn)
Output line: 13

Input line: What does the record list as microsomal CLint for c1cncc(-c2ccccc2[C@@H]2Cc3nccn3C2)c1 ?
Output line: 8

Input line: Need microsomal CLint of CS(=O)(=O)Nc1cccc(-c2ccccc2[C@@H]2Cc3nccn3C2)c1 , thanks.
Output line: 22

Input line: Value lookup for microsomal CLint; key = CNC(=O)c1cccc(-c2ccccc2[C@@H]2Cc3nccn3C2)c1
Output line: 10

Input line: Sample Fc1ccc(-n2cccn2)c(C2Cc3nccn3C2)c1 (stereo not drawn) — what was its microsomal CLint?
Output line: 9

Input line: # lookup: microsomal CLint of Fc1ccc(-c2ncco2)c(C2Cc3nccn3C2)c1 (stereo not drawn)
Output line: 16

Input line: Fill in the blank: the reported microsomal CLint of c1ccc(-n2cccn2)c([C@@H]2Cc3nccn3C2)c1 is ____.
Output line: 18

Input line: Give the measured microsomal CLint of Fc1ccc(-c2cc[nH]n2)c(C2Cc3nccn3C2)c1 (stereo not drawn) .
Output line: 10

====

Field: pEC50. Provide a value for each of the compounds that follow.
# target.or.system: UniProt P25100
# Sequence (P25100 whole entry): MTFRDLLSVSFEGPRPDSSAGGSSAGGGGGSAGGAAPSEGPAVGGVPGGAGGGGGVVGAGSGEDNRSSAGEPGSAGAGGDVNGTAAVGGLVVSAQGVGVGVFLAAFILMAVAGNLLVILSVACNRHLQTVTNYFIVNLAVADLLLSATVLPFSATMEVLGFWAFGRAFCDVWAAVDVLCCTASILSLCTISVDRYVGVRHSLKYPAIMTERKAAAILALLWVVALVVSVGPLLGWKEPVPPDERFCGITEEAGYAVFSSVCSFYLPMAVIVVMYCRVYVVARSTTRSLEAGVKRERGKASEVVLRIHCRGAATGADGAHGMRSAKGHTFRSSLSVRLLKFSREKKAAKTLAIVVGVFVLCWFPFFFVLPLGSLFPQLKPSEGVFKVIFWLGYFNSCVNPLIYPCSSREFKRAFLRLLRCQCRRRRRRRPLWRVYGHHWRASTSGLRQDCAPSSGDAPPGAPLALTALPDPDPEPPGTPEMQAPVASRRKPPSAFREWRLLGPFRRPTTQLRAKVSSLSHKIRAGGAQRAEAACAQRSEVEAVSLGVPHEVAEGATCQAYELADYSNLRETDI
# test.protocol: Agonist activity at human adrenergic Alpha-1D receptor expressed in CHO cells assessed as calcium mobilization by FLIPR
pEC50: −log10 of the molar value.

Input line: Given the compound Fc1ccc(C2Cc3nccn3C2)c(-c2cncnc2)c1 (stereo not drawn) , what is its reported pEC50?
Output line: < 5.47

Input line: # pEC50 lookup, item Fc1ccc(-c2cncnc2)c(C2Cc3nccn3C2)c1 (stereo not drawn)
Output line: < 5.59

Input line: Name the reported pEC50 value associated with the compound COCc1c(Cl)ccc2c1CC[C@H]2c1ncc[nH]1
Output line: < 5.15
